Sourced from patent US20250059162A1

- Test system: HL60 cells
- procedureDetails: Anti-proliferation on HL60 cells (CellTiter-Glo, 3 days)
- Type: cell-based
- cond: Homo sapiens, HL-60, 72 h, 3 days incubation, CTG luminescence, IC50 by XLfit, read-out: HL60 cells Proliferation inhibitory activity
- Protocol: HL60 cells (Cell Bank of Chinese Academy of Sciences) in the logarithmic growth phase were counted and plated evenly in a 96-well transparent bottom white plate at 20000 cells per well and 100 μL per well. A certain amount of the compound of the present invention was weighed and diluted with DMSO to a 10 mM stock solution. […]
reportedProperty: pIC50
# log scale: pIC50 equals minus log10 of the concentration in mol/L

O=C1C[C@@H](N2Cc3cc(CNCC4CCN(c5ncc(-c6cccc(F)c6)cc5C(F)(F)F)CC4)ccc3C2=O)C(=O)N1	5.03

For reference, reported pIC50 for O=C1CCC(N2Cc3cc(C(=O)NCC4CCN(c5cc(-c6cccc7ccccc67)ccn5)CC4)ccc3C2=O)C(=O)N1 (stereo not shown) stands at 8.82

###

# pIC50 values compiled below
- Test system: HL60 cells
- procedureDetails: Anti-proliferation on HL60 cells (CellTiter-Glo, 3 days)
- Type: cell-based
- cond: Homo sapiens, HL-60, 72 h, 3 days incubation, CTG luminescence, IC50 by XLfit, read-out: HL60 cells Proliferation inhibitory activity
# log scale: pIC50 equals minus log10 of the concentration in mol/L

O=C1CCC(N2Cc3cc(CNCC4CCN(c5ncc(-c6ccc(Cl)cc6)cc5F)CC4)ccc3C2=O)C(=O)N1 (stereo not shown)	8.96
O=C1CCC(N2Cc3cc(CNCC4C5CCC4CN(c4ncc(-c6cccc(Cl)c6)cc4C(F)(F)F)C5)ccc3C2=O)C(=O)N1 (stereo not shown)	7.44
O=C1CCC(n2c(C3CC3)nc3cc(CNCC4CCN(c5ncc(-c6cccc(Cl)c6)cc5C(F)(F)F)CC4)ccc3c2=O)C(=O)N1 (stereo not shown)	4.94

For reference, reported pIC50 for O=C1CCC(N2C(=O)c3cccc4c(CNCC5CCN(c6ncc(-c7cccc(F)c7)cc6F)CC5)ccc2c34)C(=O)N1 (stereo not shown) stands at 4.94

For reference, reported pIC50 for `O=C1CC[C@H](N2Cc3cc(CNCC4CCN(c5ncc(-c6cccc(F)c6)cc5F)CC4)ccc3C2=O)C(=O)N1` stands at 8.61

For reference, reported pIC50 for O=C1CCC(N2Cc3cc(NC(=O)CC4CCN(CC(=O)Nc5cccc6ccccc56)CC4)ccc3C2=O)C(=O)N1 (stereo not shown) stands at 8.22

###

- Test system: HL60 cells
- procedureDetails: Anti-proliferation on HL60 cells (CellTiter-Glo, 3 days)
- Format: cell-based
- cond: Homo sapiens, HL-60, 72 h, 3 days incubation, CTG luminescence, IC50 by XLfit, read-out: HL60 cells Proliferation inhibitory activity
pIC50: −log10 of the molar value.
Each entry falls into one class according to its pIC50; the ranges are range A (below 8), range B (8 to below 9), range C (9 or more)

Study these solved cases before continuing.
O=C1CCC(N2Cc3cc(CNCC4CCN(c5ncc(-n6c7ccccc7c7ccccc76)cc5C(F)(F)F)CC4)ccc3C2=O)C(=O)N1 (centres unmarked) [Compound A129]	range A
O=C1CCC(N2Cc3cc(C(=O)NCC4CCN(c5ncc(-c6cccc7ccccc67)o5)CC4)ccc3C2=O)C(=O)N1 (centres unmarked) [Compound A27]	range B
O=C1CCC(N2Cc3cc(C(=O)NCC4CCN(c5cccc(-c6cccc7ccccc67)c5)CC4)ccc3C2=O)C(=O)N1 (centres unmarked) [Compound A21]	range B
O=C1C[C@@H](N2Cc3cc(CNCC4CCN(c5ncc(-c6cccc(Cl)c6)cc5C(F)(F)F)CC4)ccc3C2=O)C(=O)N1 [Compound A171]	range A

Turning to the following molecule.
Hello team, could you let me know which band the following molecule falls into: COC(=O)c1cc(-c2cccc(Cl)c2)cnc1N1CCC(CNCc2ccc3c(c2)CN(C2CCC(=O)NC2=O)C3=O)CC1 (centres unmarked) [Compound A100]
range C

###

- experimentalSystem: GSPT1 protein (Homo sapiens)
- Construct: degradation of myc and GSPT1 proteins in HL60 cells; endogenous in cells; host or cells: HL60
- procedureDetails: GSPT1 protein degradation in HL60 cells (Western blot)
- Assay type: cell-based
- cond: HL-60, compound at 10 nM, 24 h, gray value relative to Ctrl (DMSO), read-out: Remaining amount of GSPT1 protein (@10 nM/Ctrl)
reportedProperty: remaining GSPT1 protein at 0.01 µM (%)
Report the figure in % without appending any unit label.

Example entries and their recorded answers appear below.
O=C1CCC(N2Cc3cc(CNCC4CCN(c5ncc(-c6cccc7ccccc67)cn5)CC4)ccc3C2=O)C(=O)N1 (stereo not shown) [Compound A62]	16
O=C1CCC(N2Cc3cc(CNCC4CCN(c5ncc(-c6cccc(Cl)c6)cc5C(F)(F)F)CC4)ccc3C2=O)C(=O)N1 (stereo not shown) [Compound A80]	3
O=C1CCC(N2Cc3cc(CNCC4CCN(c5ncc(-c6cccc(Cl)c6)cc5F)CC4F)ccc3C2=O)C(=O)N1 (stereo not shown) [Compound A87]	0
N#Cc1cccc(-c2cnc(N3CCC(CNCc4ccc5c(c4)CN(C4CCC(=O)NC4=O)C5=O)CC3)c(F)c2)c1 (stereo not shown) [Compound A111]	2
O=C1CCC(N2Cc3cc(CNCC4CCN(c5cnc(-c6cccc7ccccc67)cn5)CC4)ccc3C2=O)C(=O)N1 (stereo not shown) [Compound A63]	5

For reference, reported remaining GSPT1 protein at 0.01 µM for CC(NCc1ccc2c(c1)CN(C1CCC(=O)NC1=O)C2=O)C1CCN(c2ncc(-c3cccc(Cl)c3)cc2F)CC1 (stereo not shown) [Compound A105] stands at 7

For reference, reported remaining GSPT1 protein at 0.01 µM for O=C1CCC(N2Cc3cc(CNCC4CCN(c5ccc(-c6cccc(Cl)c6)nc5)CC4)ccc3C2=O)C(=O)N1 (stereo not shown) [Compound A71] stands at 0

###

- Test system: HL60 cells
- procedureDetails: Anti-proliferation on HL60 cells (CellTiter-Glo, 3 days)
- Type: cell-based
- cond: Homo sapiens, HL-60, 72 h, 3 days incubation, CTG luminescence, IC50 by XLfit, read-out: HL60 cells Proliferation inhibitory activity
# log10 of IC50 values compiled below
Answers are given as log10 of IC50 in nM.

Example entries and their recorded answers appear below.
O=C1CCC(N2Cc3cc(C(=O)NCC4CCN(c5ncc(-c6cccc7ccccc67)cn5)CC4)ccc3C2=O)C(=O)N1 (stereo not shown)	-0.70
O=C1CCC(N2Cc3cc(CNCC4CCN(c5ccc(-c6cccc(Cl)c6)cc5C(F)(F)F)CC4)ccc3C2=O)C(=O)N1 (stereo not shown)	1.31
O=C1CCC(N2Cc3cc(C(=O)NCC4CCN(c5ccnc(-c6cccc7ccccc67)n5)CC4)ccc3C2=O)C(=O)N1 (stereo not shown)	1.32
O=C1CCC(N2Cc3cc(CNCC4CCN(c5ncc(-c6cccc(Cl)c6)cc5[N+](=O)[O-])CC4)ccc3C2=O)C(=O)N1 (stereo not shown)	0.48
O=C1CCC(N2Cc3cc(NC(=O)CC4CCN(c5ncc(-c6cccc7ccccc67)o5)CC4)ccc3C2=O)C(=O)N1 (stereo not shown)	-0.05

Kindly consider the entry below.
For reference, reported log10 of IC50 for O=C1CCC(N2Cc3cc(CNCC4CCN(c5ncc(-c6ccccc6F)cc5F)CC4)ccc3C2=O)C(=O)N1 (stereo not shown) stands at 0.96

###

- experimentalSystem: GSPT1 protein (Homo sapiens, UniProt P15170)
- Construct: degradation of myc and GSPT1 proteins in HL60 cells; endogenous in cells; host or cells: HL60
- Sequence (P15170 whole entry): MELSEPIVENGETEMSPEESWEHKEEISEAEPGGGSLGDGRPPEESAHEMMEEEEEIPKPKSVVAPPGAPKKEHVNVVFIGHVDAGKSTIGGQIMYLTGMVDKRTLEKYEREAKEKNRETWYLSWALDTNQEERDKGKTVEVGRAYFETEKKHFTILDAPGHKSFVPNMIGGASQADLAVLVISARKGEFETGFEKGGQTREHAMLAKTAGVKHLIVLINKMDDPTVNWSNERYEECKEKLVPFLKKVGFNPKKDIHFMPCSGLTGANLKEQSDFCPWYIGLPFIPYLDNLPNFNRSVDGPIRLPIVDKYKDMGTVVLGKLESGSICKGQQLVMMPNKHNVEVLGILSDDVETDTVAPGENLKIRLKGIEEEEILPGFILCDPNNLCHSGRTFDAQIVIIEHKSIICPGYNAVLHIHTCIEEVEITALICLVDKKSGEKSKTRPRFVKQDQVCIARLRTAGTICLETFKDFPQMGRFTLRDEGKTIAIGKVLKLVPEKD
- procedureDetails: GSPT1 protein degradation in HL60 cells (Western blot)
- Type: cell-based
- cond: HL-60, compound at 10 nM, 24 h, gray value relative to Ctrl (DMSO), read-out: Remaining amount of GSPT1 protein (@10 nM/Ctrl)
# remaining GSPT1 protein at 0.01 µM values compiled below
Report the figure in % without appending any unit label.

Example entries and their recorded answers appear below.
COC(=O)c1cc(-c2cccc(Cl)c2)cnc1N1CCC(CNCc2ccc3c(c2)CN(C2CCC(=O)NC2=O)C3=O)CC1 (stereo not shown)	0
O=C1CCC(N2Cc3cc(CNCC4CCN(c5ncc(-c6cccc(F)c6)cn5)CC4)ccc3C2=O)C(=O)N1 (stereo not shown)	25
O=C1C[C@H](N2Cc3cc(CNCC4CCN(c5ncc(-c6cccc(Cl)c6)cc5C(F)(F)F)CC4)ccc3C2=O)C(=O)N1	65
O=C1CCC(N2Cc3cc(CNCC4CCN(c5ccc(-c6cccc(Cl)c6)cn5)CC4)ccc3C2=O)C(=O)N1 (stereo not shown)	23
O=C1CCC(N2Cc3cc(CNCC4CCN(c5ncc(-c6ccc(Cl)cc6)cc5F)CC4)ccc3C2=O)C(=O)N1 (stereo not shown)	10

For reference, reported remaining GSPT1 protein at 0.01 µM for COc1cccc(-c2cnc(N3CCC(CNCc4ccc5c(c4)CN(C4CCC(=O)NC4=O)C5=O)CC3)c(F)c2)c1 (stereo not shown) stands at 0

For reference, reported remaining GSPT1 protein at 0.01 µM for O=C1CCC(N2Cc3cc(CNCC4CCN(c5ncc(-c6ccccc6Cl)cc5F)CC4)ccc3C2=O)C(=O)N1 (stereo not shown) stands at 0
